SYSTEM TESTED: T1, human CCR8 (chemokine (C-C motif) receptor 8) (human, UniProt P51685 1-355)
T1 construct: whole, on cells; also called CCR8-CHO-K1 cells; CHOK1-CCR8 cells
T1 sequence (P51685 whole entry): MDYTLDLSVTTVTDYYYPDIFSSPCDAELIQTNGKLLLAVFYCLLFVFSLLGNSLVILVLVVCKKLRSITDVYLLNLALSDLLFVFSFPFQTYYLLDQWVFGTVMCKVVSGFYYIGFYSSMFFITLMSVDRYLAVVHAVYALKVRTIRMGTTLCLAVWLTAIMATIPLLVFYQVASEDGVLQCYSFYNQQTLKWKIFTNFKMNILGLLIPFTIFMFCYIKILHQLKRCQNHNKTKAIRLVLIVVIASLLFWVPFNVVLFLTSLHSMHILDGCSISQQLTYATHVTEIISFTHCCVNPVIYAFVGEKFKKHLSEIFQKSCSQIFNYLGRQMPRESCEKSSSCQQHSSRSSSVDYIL
ASSAY REMARKS: flow cytometry on CHOK1-CCR8 cells, steps of Example 6
EXPERIMENTAL ENDPOINT: binding result

Hu-2-Z9 (antibody, V domains shown, Humanized from CH-2; also called humanized antibody Hu-2-Z9) VH: QVQLVQSGAEVKKPGASVKVSCKASGYTFTDYEMHWVRQAPGQGLEWMGAIDPETGATAYNQKFKGRVTLTADTSISTAYMELSRLRSDDTVVYYCKSRAGGRGRFAYWGQGTLVTVSS VL: DVVMTQSPLTLSLSPGERATLSCRSSQSLVHSSGNTYLHWYQQKPGQSPKLLIYKVSNRFSGIPDRFSGSGSGTDFTLTISRLEPEDFAVYFCSQTTHVPYTFGGGTKLELK | binds
Hu-15-Z3 (antibody, V domains shown, Humanized from CH-15; also called humanized antibody Hu-15-Z3) VH: EVQLVESGGGLVQPGGSLRLSCAASGFTFNTNAMNWVRQAPGKGLEWVGRIRTKSNNYATYYAESVRDRFTISRDDSKNSLYLQMNSLKTEDTAVYYCARGGYGIRGDYTMDYWGQGTLVTVSS VL: DIVMTQSPPTLSLSPGERATLSCRSSKSLLHSNGNTYLYWFQQKPGQSPQLLIYRMSNLASGIPDRFSGSGSGTDFTLTISRLEPEDFAVYYCMQHLEYPFTFGQGTKLEIK | binds
Hu-15-Z6 (antibody, V domains shown, Humanized from CH-15; also called humanized antibody Hu-15-Z6) VH: EVQLVESGGGLVQPGGSLRLSCAASGFTFNTNAMNWVRQAPGKGLEWVGRIRTKSNNYATYYAESVRDRFTISRDDSKNSLYLQMNSLKTEDTAMYYCVRGGYGIRGDYTMDYWGQGTLVTVSS VL: DIVMTQSPPTLSLSPGERATLSCRSSKSLLHSNGNTYLYWFQQKPGQSPQLLIYRMSNLASGIPDRFSGSGSGTDFTLTISRLEPEDFAVYYCMQHLEYPFTFGQGTKLEIK | binds
